Entries and their inhibition values follow.
- ASSAY_TARGET: Tyrosine-protein kinase Mer (Homo sapiens) (UniProt Q12866);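 note: values are mean inhibition of human MER kinase, from the GSK PKIS profiling panel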
- Sequence (whole entry): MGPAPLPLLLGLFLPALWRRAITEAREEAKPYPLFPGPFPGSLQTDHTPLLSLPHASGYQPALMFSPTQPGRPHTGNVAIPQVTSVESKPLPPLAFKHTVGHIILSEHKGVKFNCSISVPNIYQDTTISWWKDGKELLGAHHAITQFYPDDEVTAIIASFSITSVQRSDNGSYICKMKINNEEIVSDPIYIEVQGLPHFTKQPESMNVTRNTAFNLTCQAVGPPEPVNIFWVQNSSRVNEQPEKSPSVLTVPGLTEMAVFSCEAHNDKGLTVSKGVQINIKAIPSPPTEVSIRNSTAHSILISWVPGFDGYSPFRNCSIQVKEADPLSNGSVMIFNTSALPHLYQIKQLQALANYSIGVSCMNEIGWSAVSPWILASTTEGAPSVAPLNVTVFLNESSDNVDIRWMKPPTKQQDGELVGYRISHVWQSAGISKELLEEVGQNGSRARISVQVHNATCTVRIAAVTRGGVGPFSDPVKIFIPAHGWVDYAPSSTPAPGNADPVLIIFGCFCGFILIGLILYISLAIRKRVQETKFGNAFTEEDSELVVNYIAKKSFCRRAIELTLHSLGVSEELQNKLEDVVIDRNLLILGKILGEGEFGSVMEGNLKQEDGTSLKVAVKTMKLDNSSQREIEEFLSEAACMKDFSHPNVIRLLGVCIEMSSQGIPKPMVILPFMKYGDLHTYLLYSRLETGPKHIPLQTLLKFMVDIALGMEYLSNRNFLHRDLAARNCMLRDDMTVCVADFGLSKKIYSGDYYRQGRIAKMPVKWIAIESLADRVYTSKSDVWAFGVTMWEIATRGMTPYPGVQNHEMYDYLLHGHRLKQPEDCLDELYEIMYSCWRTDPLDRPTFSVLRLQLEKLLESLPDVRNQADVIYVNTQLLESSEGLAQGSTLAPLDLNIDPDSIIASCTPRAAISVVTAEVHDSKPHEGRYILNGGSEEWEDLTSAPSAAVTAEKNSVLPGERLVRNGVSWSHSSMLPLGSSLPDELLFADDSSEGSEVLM
- CONDITION_SET: at 1 µM
Number only, in %; omit the unit.

CCn1c(-c2nonc2N)nc2c(C#CC(C)(C)O)nc(CN3CCCC3)cc21 | 0.18
Cc1nn(C)c2cc(N(C)c3ccnc(Nc4cccc(S(N)(=O)=O)c4)n3)ccc12 | 18.8
NC(=O)c1ccc(-c2nc(-c3ccccn3)c(-c3ccc4c(c3)OCO4)[nH]2)cc1 | 3.36
COc1cc2ncn(-c3cc(O[C@@H](C)c4ccccc4Cl)c(C(N)=O)s3)c2cc1OC | 10.3
COc1cc(C=NNc2ncnc3c2cnn3-c2ccccc2)ccc1O | 34.5
CCc1cccc(NC(=O)Nc2ccc(Oc3ccc4nc(NC(=O)OC)[nH]c4c3)cc2)c1 | 3.11
O=C1NC(=O)C(c2cccc(Cl)c2)=C1Nc1ccc(O)c(Cl)c1 | 3.08
COc1cc(C)c(NC(=O)CN(C)C)cc1Nc1nc(Nc2cccc(F)c2C(N)=O)c2cc[nH]c2n1 | 7.53
Cc1nnc(-c2ccc(C)c(-c3ccc(C(=O)Nc4cccc(C#N)c4)cc3)c2)o1 | 2.51

Now, please, on to the next molecule.
Note to self: inhibition recorded for `CCn1c(-c2nonc2N)nc2ccncc21` was -0.52

* * *

- ASSAY_TARGET: Serine/threonine-protein kinase Nek9 (Homo sapiens);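 note: each value is a mean percent inhibition of NEK9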
- CONDITION_SET: at 1 µM
Entries and their inhibition values follow.
Number only, in %; omit the unit.

Here is how some compounds turned out for inhibition.
COc1ccc(-c2ccncc2)cc1C(N)=O | 2.67
CN(C)c1cc2c(Nc3ccc4nc(Cc5ccccc5)[nH]c4c3)ncnc2cn1 | 10.6
Cc1cc(O)cc(C)c1/C=C/c1cncc(-c2nn[nH]n2)c1 | 8.64
NS(=O)(=O)c1cccc(-c2ccc3c(NC(=O)C4CC4)n[nH]c3c2)c1 | 2.04
COc1ccc2cc(-c3c(-c4ccncc4)nc(-c4ccc([S+](C)[O-])cc4)n3C)ccc2c1 (stereo not drawn) | 0.29
NS(=O)(=O)c1ccc(N/N=C2\C(=O)Nc3ccc(C(=O)NCCc4c[nH]cn4)cc32)cc1 | 10.4
Cn1cc(C=C2C(=O)Nc3cccnc32)c2ccccc21 | 4.67
CS(=O)(=O)CCNCc1ccc(-c2ccc3ncnc(Nc4ccc(OCc5ccccc5)c(Cl)c4)c3c2)o1 | 4.02
Nc1ncnc2occ(-c3ccc(NC(=O)Nc4cc(C(F)(F)F)cc(C(F)(F)F)c4)cc3)c12 | -1.98
CS(=O)(=O)CCNCc1ccc(-c2ccc3ncnc(Nc4ccc(OCc5cccc(F)c5)c(C(F)(F)F)c4)c3c2)o1 | 10.1

Note to self: inhibition recorded for `NC(=O)c1ccc(-c2nc(-c3ccccn3)c(-c3ccc4c(c3)OCO4)[nH]2)cc1` was 6.43

Note to self: inhibition recorded for `Nc1ncnc2occ(-c3ccc(NC(=O)Nc4cccc(C(F)(F)F)c4)cc3)c12` was 17.9

Note to self: inhibition recorded for `O=C1NC(=O)C(c2ccc(Cl)cc2)=C1Nc1ccc(Cl)c(C(=O)O)c1` was -2.24

Note to self: inhibition recorded for `COc1cc(C=NNc2ncnc3c2cnn3-c2ccccc2)ccc1O` was 1.08

Note to self: inhibition recorded for `COc1ccc(-c2coc3ncnc(N)c23)cc1` was 6.24

Note to self: inhibition recorded for `COc1cc2ncn(-c3cc(OCc4ccccc4Cl)c(C(N)=O)s3)c2cc1OC` was 55.5

Note to self: inhibition recorded for `COc1cc2ncn(-c3cc(OCc4ccccc4C(F)(F)F)c(C(N)=O)s3)c2cc1OC` was 58.7

Note to self: inhibition recorded for `O=C1Nc2ccc(C(=O)c3ccco3)cc2C1=Cc1cc(Cl)c(O)c(Cl)c1` was 5.76

Note to self: inhibition recorded for `Fc1cccc(COc2ccc(Nc3ncnc4sc(-c5cccs5)cc34)cc2Cl)c1` was 2.21

Note to self: inhibition recorded for `c1cnn2ncc(-c3ccnc(Nc4ccc5c(c4)OCCO5)n3)c2c1` was 49.9

* * *

- ASSAY_TARGET: Tyrosine-protein kinase Fes/Fps (Homo sapiens) (UniProt P07332)
- Sequence (P07332 whole entry): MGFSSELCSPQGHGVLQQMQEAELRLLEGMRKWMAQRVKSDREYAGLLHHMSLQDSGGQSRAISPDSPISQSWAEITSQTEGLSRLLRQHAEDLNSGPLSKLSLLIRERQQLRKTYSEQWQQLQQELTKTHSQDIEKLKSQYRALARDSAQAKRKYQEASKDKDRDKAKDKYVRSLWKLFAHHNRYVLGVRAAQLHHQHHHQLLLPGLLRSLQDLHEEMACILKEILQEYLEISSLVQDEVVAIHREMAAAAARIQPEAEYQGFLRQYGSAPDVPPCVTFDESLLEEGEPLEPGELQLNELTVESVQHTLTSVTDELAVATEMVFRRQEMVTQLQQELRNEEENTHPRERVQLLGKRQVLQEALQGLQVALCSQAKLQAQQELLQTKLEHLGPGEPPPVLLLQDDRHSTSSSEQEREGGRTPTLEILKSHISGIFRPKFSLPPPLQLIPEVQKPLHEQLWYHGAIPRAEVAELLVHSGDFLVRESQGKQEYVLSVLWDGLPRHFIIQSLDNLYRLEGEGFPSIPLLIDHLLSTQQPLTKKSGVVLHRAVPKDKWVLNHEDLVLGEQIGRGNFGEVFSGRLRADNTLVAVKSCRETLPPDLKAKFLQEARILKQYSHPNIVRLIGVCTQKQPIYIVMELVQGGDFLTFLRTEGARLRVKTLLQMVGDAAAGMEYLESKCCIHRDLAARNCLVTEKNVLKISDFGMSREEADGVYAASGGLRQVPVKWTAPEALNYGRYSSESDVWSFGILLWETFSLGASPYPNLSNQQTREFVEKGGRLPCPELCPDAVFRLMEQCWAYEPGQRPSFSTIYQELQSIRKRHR
- CONDITION_SET: at 0.1 µM
- Description: GSK_PKIS: FES mean inhibition at 0.1 uM [Nanosyn]
Entries and their inhibition values follow.
Number only, in %; omit the unit.

COc1ccc(-c2nn3ncccc3c2-c2ccnc(Nc3ccc(Cl)c(C(F)(F)F)c3)n2)cc1 | 0.66

Now, please, on to the next molecule.
Note to self: inhibition recorded for `NC(=O)c1cccc(Nc2nccc(Nc3cccc4[nH]ncc34)n2)c1` was -2.33

* * *

Entries and their inhibition values follow.
- ASSAY_TARGET: Ribosomal protein S6 kinase alpha-6 (Homo sapiens) (UniProt Q9UK32);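 note: reported value is the mean inhibition of RSK4, from the GSK PKIS kinase inhibitor screen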
- Sequence (Q9UK32 whole entry): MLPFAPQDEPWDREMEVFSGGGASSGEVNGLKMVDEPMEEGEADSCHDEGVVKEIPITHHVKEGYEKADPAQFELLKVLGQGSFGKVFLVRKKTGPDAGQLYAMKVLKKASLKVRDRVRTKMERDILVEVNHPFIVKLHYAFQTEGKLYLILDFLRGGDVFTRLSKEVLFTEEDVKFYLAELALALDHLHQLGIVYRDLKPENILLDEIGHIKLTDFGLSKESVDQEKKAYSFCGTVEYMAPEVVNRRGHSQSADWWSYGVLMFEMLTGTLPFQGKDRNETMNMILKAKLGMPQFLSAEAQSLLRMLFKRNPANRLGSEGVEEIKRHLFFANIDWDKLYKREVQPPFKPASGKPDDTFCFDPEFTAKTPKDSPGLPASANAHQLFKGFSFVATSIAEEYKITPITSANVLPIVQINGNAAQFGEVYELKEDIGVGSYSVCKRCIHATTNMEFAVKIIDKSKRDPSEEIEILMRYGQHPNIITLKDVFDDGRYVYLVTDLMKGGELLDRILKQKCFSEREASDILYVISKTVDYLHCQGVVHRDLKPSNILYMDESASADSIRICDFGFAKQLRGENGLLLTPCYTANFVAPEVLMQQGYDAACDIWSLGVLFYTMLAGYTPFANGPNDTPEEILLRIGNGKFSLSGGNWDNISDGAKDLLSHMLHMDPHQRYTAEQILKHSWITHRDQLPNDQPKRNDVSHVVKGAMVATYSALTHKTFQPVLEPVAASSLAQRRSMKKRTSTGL
- CONDITION_SET: at 0.1 µM
Number only, in %; omit the unit.

CN1CCC(C(=O)Nc2n[nH]c3nnc(-c4ccccc4)cc23)CC1 | 0.86
CCN1CCC(CC(=O)Nc2n[nH]c3nc(-c4cccs4)c(Br)cc23)CC1 | -1.6

Note to self: inhibition recorded for `COc1cc2c(cc1Nc1nc(N3CCc4ccccc43)c3cc[nH]c3n1)N(C(=O)CN(C)C)CC2` was 1.57

Note to self: inhibition recorded for `CCCN1CCC=C(c2ccc(Nc3nc(Nc4ccccc4C(N)=O)c4cc[nH]c4n3)c(C)c2)C1` was 11.7

Note to self: inhibition recorded for `CCn1c(-c2nonc2N)nc2c(C#CC(C)(C)O)nc(OC[C@@H](N)c3ccccc3)cc21` was 2.62

* * *

- System: Tyrosine-protein kinase ABL1 (Homo sapiens), P00519 [E255K]
- Sequence (P00519 whole entry E255K): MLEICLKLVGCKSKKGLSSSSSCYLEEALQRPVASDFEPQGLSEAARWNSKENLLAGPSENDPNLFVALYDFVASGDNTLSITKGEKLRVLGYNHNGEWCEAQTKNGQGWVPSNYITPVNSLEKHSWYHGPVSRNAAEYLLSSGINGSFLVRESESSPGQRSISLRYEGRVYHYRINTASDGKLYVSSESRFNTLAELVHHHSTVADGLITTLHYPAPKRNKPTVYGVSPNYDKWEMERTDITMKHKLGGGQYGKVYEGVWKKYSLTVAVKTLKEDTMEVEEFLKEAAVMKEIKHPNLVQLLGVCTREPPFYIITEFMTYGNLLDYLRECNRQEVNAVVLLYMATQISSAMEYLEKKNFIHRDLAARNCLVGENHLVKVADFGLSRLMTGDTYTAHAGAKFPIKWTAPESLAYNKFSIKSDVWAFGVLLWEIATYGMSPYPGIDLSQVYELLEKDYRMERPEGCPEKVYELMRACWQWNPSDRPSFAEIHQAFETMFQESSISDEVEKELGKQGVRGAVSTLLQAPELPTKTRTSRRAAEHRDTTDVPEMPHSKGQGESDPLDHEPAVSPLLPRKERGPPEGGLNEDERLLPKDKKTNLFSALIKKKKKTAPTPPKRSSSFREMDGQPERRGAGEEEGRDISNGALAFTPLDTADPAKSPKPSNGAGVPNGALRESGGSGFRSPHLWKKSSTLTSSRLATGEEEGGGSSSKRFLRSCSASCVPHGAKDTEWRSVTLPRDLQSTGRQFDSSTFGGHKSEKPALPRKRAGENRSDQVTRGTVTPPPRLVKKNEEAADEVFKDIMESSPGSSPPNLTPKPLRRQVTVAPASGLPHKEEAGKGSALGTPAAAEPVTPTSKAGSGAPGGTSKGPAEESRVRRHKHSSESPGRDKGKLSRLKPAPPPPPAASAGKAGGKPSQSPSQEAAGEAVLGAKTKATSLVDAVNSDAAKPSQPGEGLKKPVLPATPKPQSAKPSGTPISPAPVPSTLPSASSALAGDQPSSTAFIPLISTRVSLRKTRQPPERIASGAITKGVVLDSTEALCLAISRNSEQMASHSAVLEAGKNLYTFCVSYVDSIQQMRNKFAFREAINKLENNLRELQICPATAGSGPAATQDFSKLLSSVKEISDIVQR
- CONDITION_SET: at 0.1 µM
Everything with inhibition lower than 4% is NOT MET; everything else, including exactly 4%, is MET.

COc1ccc(COc2ccc(Cc3cnc(N)nc3N)cc2OC)cc1 | NOT MET

Prompt: Would you say `COc1cc2ncn(-c3cc(OCc4ccccc4C(F)(F)F)c(C(N)=O)s3)c2cc1OC` shows inhibition at minimum 4%?
Response: NOT MET

Prompt: Would you say `O=C(Nc1n[nH]c2nc(-c3ccco3)c(Br)cc12)C1CC1` shows inhibition at minimum 4%?
Response: NOT MET

Prompt: Would you say `Nc1ncnc2occ(-c3ccc(NC(=O)Nc4cc(C(F)(F)F)cc(C(F)(F)F)c4)cc3)c12` shows inhibition at minimum 4%?
Response: NOT MET

Prompt: Would you say `c1cnn2ncc(-c3ccnc(Nc4ccc5c(c4)OCCO5)n3)c2c1` shows inhibition at minimum 4%?
Response: MET

* * *

- ASSAY_TARGET: Casein kinase I isoform alpha (Homo sapiens) (UniProt P48729);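 note: values are the mean percent inhibition of CK1a, averaged over measurements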
- Sequence (P48729 2-337 limits assumed): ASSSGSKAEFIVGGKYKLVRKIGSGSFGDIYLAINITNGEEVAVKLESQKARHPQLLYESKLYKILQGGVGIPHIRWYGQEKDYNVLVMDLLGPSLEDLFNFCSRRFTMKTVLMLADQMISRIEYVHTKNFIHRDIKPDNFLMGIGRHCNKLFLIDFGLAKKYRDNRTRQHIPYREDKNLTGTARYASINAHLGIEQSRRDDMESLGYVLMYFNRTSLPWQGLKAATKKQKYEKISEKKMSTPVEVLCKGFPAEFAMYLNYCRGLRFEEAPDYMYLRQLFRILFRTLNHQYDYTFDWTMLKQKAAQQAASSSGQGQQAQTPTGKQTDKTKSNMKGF
- CONDITION_SET: at 0.1 µM
VALUE_KIND: inhibition (%)
Number only, in %; omit the unit.

NCc1ccc(-c2nc(-c3ccc(Cl)c(O)c3)c(-c3ccncc3)[nH]2)cc1 | 3.06
COc1ccc(COc2ccc(Cc3cnc(N)nc3N)cc2OC)cc1 | 0.49
CS(=O)(=O)Nc1ccc(N/C=C2\C(=O)Nc3ccccc32)cc1 | -2.3
Nc1ncnc2occ(-c3ccc(NC(=O)Nc4cccc(C(F)(F)F)c4)cc3)c12 | 3.35

Now, please, on to the next compound.
Note to self: inhibition recorded for `CS(=O)(=O)CCNCc1ccc(-c2ccc3ncnc(Nc4ccc(OCc5cccc(F)c5)c(C(F)(F)F)c4)c3c2)o1` was 1.94
